Quick reference for PAMPA_R1 among some compounds
details: PAMPA
Where a SMILES comes first, the peptide text is derived from it. [ ]: non-standard residue; d: D form. NMeL = CN[C@@H](CC(C)C)C(=O)O; dNMeL = CN[C@H](CC(C)C)C(=O)O; dNMeA = CN[C@H](C)C(=O)O; Sar = CNCC(=O)O
Readout name: PAMPA_R1

{"Compound": "CC[C@@H](C)[C@H]1NC(=O)[C@H]2CCCN2C(=O)[C@@H]2CCCN2C(=O)[C@@H](CC(C)C)NC(=O)[C@H](C)NC(=O)[C@@H](CC(C)C)N(C)C(=O)[C@@H](C)N(C)C(=O)[C@@H]2CCCN2C(=O)[C@@H]([C@H](C)CC)NC(=O)[C@@H](CC(C)C)N(C)C1=O [Design D10.39] (cyclo(A[dL]P[dP][dI][dNMeL][dI]P[dNMeA][dNMeL]))", "Result": "1.69E-06"}
{"Compound": "CC[C@@H](C)[C@H]1NC(=O)[C@@H]2CCCN2C(=O)[C@@H]([C@H](C)CC)NC(=O)CN(C)C(=O)[C@H](CC(C)C)NC(=O)[C@@H](Cc2ccccc2)NC(=O)[C@H](CC(C)C)N(C)C(=O)[C@H]2CCCN2C(=O)[C@@H](CC(C)C)NC(=O)[C@H](CC(C)C)NC(=O)[C@H]2CCCN2C1=O [Design D11.2] (cyclo(L[Sar][dI]P[dI][dP]L[dL][dP][NMeL][dF]))", "Result": "1.82E-06"}
{"Compound": "CC[C@H](C)[C@@H]1NC(=O)[C@H](Cc2ccccc2)NC(=O)[C@H]2CCCN2C(=O)[C@H]([C@@H](C)CC)NC(=O)[C@H](C(C)C)NC(=O)[C@@H](C)NC(=O)[C@H]2CCCN2C1=O (single isomer, unassigned) [Design D7.8.p1, VAL ILE DPRO PHE ILE DPRO DALA]", "Result": "4.5e-06 cm/s"}

* * *

settings: PAMPA
Where a SMILES comes first, the peptide text is derived from it. [ ]: non-standard residue; d: D form. ξ: configuration not given here. NMeF = CN[C@@H](Cc1ccccc1)C(=O)O; NMeI = CC[C@H](C)[C@H](NC)C(=O)O; dIle(3ξ) = CCC(C)[C@@H](N)C(=O)O; NMeL = CN[C@@H](CC(C)C)C(=O)O; dNMeL = CN[C@H](CC(C)C)C(=O)O; NMeM = CN[C@@H](CCSC)C(=O)O; NMeV = CN[C@H](C(=O)O)C(C)C; NMeA = CN[C@@H](C)C(=O)O; dNMeA = CN[C@H](C)C(=O)O
Quick reference for PAMPA_R3 among some compounds

{"Compound": "CC[C@H](C)[C@@H]1NC(=O)[C@H](Cc2ccccc2)N(C)C(=O)[C@H]2CCCN2C(=O)[C@@H](CC(C)C)N(C)C(=O)[C@@H](Cc2ccccc2)NC(=O)[C@H](C(C)C)NC(=O)[C@H](CC(C)C)NC(=O)[C@H]2CCCN2C(=O)[C@H](CC(C)C)NC(=O)[C@@H]2CCCN2C1=O [Design D10.50] (cyclo(IPL[dP]LV[dF][dNMeL][dP][NMeF]))", "PAMPA_R3": "6.88E-07"}
{"Compound": "CC[C@@H](C)[C@H]1NC(=O)[C@H](C(C)C)NC(=O)[C@H]2CCCN2C(=O)[C@@H]2CCCN2C(=O)[C@H](CC(C)C)N(C)C(=O)[C@H](C)N(C)C(=O)[C@@H](CC(C)C)N(C)C(=O)[C@H](C)NC(=O)[C@@H](Cc2ccccc2)NC(=O)[C@@H]2CCCN2C1=O [Design D10.25] (cyclo(A[dNMeL][NMeA][NMeL]P[dP]V[dI]P[dF]))", "PAMPA_R3": "4.39E-07"}
{"Compound": "CSCC[C@H]1C(=O)N(C)[C@H](C)C(=O)N[C@H](CC(C)C)C(=O)N2CCC[C@@H]2C(=O)N2CCC[C@H]2C(=O)N[C@@H](CC(C)C)C(=O)N2CCC[C@H]2C(=O)N2CCC[C@@H]2C(=O)N[C@H](C(C)C)C(=O)N1C [Design D9.24] (cyclo(LP[dP][dV][NMeM][dNMeA][dL][dP]P))", "PAMPA_R3": "8.51E-08"}
{"Compound": "CC[C@H](C)[C@H]1C(=O)N[C@H](C)C(=O)N[C@@H](CC(C)C)C(=O)N[C@@H](C(C)C)C(=O)N2CCC[C@@H]2C(=O)N(C)[C@@H](CC(C)C)C(=O)N[C@@H](C(C)C)C(=O)N2CCC[C@H]2C(=O)N(C)[C@H](CC(C)C)C(=O)N[C@@H](C(C)C)C(=O)N1C [Design D10.19] (cyclo(LV[dP][NMeL]VP[dNMeL]V[NMeI][dA]))", "PAMPA_R3": "7.38E-06"}
{"Compound": "CC[C@H](C)[C@@H]1NC(=O)[C@H]2CCCN2C(=O)[C@@H]2CCCN2C(=O)[C@@H](C(C)C)NC(=O)[C@@H](C)N(C)C(=O)[C@H](C)N(C)C(=O)[C@@H](CC(C)C)N(C)C(=O)[C@@H](C(C)C)NC1=O [Design D8.26, DVAL *DLEU *ALA *DALA DVAL PRO DPRO ILE] (cyclo(I[dV][dNMeL][NMeA][dNMeA][dV]P[dP]))", "PAMPA_R3": "2.69E-07"}
{"Compound": "CC[C@H](C)[C@@H]1NC(=O)[C@H](CC(C)C)N(C)C(=O)[C@H]2CCCN2C(=O)[C@H]2CCCN2C(=O)[C@H](Cc2ccccc2)NC(=O)[C@@H](CC(C)C)NC(=O)[C@H]2CCCN2C(=O)[C@@H]2CCCN2C1=O [Design D8.27, PHE DPRO DPRO *LEU ILE PRO DPRO DLEU] (cyclo(F[dP][dP][NMeL]IP[dP][dL]))", "PAMPA_R3": "2.76E-07"}
{"Compound": "CC(C)C[C@H]1NC(=O)[C@@H]2CCCN2C(=O)[C@@H](C(C)C)NC(=O)[C@@H](C)N(C)C(=O)[C@@H](C(C)C)NC(=O)[C@@H]2CCCN2C(=O)[C@@H](Cc2ccccc2)NC(=O)[C@H](CC(C)C)N(C)C(=O)[C@@H](C(C)C)NC1=O [Design D9.5] (cyclo([NMeL][dF]P[dV][dNMeA][dV]P[dL][dV]))", "PAMPA_R3": "4.42E-06"}
{"Compound": "CCC(C)[C@H]1NC(=O)[C@H](CC(C)C)NC(=O)[C@@H](C)N(C)C(=O)[C@@H]2CCCN2C(=O)[C@H](C)NC(=O)[C@@H](CC(C)C)NC(=O)[C@H]2CCCN2C(=O)[C@H](C(C)C)NC(=O)[C@@H](CC(C)C)N(C)C1=O (stereo partly drawn) [Design D9.30] (cyclo(AP[dNMeA]L[dIle(3ξ)][dNMeL]V[dP][dL]))", "PAMPA_R3": "1.58E-06"}
{"Compound": "CC(C)C[C@@H]1C(=O)N(C)[C@H](C)C(=O)N(C)[C@@H](C(C)C)C(=O)N2CCC[C@@H]2C(=O)N[C@H](C)C(=O)N[C@@H](Cc2ccccc2)C(=O)N2CCC[C@@H]2C(=O)N2CCC[C@H]2C(=O)N[C@H](C(C)C)C(=O)N[C@@H](C(C)C)C(=O)N1C [Design D10.29] (cyclo([dV]V[dNMeL][dNMeA][NMeV][dP][dA]F[dP]P))", "PAMPA_R3": "4.67E-07"}
{"Compound": "CC(C)C[C@@H]1C(=O)N(C)[C@H](CC(C)C)C(=O)N2CCC[C@H]2C(=O)N[C@H](CC(C)C)C(=O)N2CCC[C@@H]2C(=O)N2CCC[C@@H]2C(=O)N(C)[C@H](CC(C)C)C(=O)N[C@H](Cc2ccccc2)C(=O)N[C@@H](C)C(=O)N1C [Design D9.18] (cyclo(A[dNMeL][dNMeL]P[dL][dP][dP][dNMeL][dF]))", "PAMPA_R3": "1.97E-06"}
{"Compound": "CC[C@H](C)[C@@H]1NC(=O)[C@@H](C(C)C)NC(=O)[C@@H]2CCCN2C(=O)[C@@H](CC(C)C)N(C)C(=O)[C@@H](C(C)C)NC(=O)[C@H](CC(C)C)N(C)C(=O)[C@H]2CCCN2C(=O)[C@@H](C)NC(=O)[C@H](Cc2ccccc2)N(C)C(=O)[C@H]2CCCN2C1=O (single isomer, unassigned) [Design D10.3.p1]", "PAMPA_R3": "1.85E-06"}

* * *

test: Pharmacokinetics and oral bioavailability of D8.3.p1 and D10.1 in Balb/C female mice (PO, SQ, IV); assay type: in vivo; conditions: female, Balb/C, mouse, in vivo; D8.3.p1 PO 5 mg/kg, mean n=3
Where a SMILES comes first, the peptide text is derived from it. [ ]: non-standard residue; d: D form. dNMeL = CN[C@H](CC(C)C)C(=O)O

{"Molecule": "CC[C@@H](C)[C@H]1NC(=O)[C@@H](CC(C)C)NC(=O)[C@@H](CC(C)C)N(C)C(=O)[C@@H]2CCCN2C(=O)[C@@H](C(C)C)NC(=O)[C@H](CC(C)C)NC(=O)[C@@H](CC(C)C)N(C)C(=O)[C@@H]2CCCN2C1=O [Design D8.3.p1, DLEU DVAL PRO *DLEU DLEU DILE PRO *DLEU] (cyclo(L[dV]P[dNMeL][dL][dI]P[dNMeL]))", "Unit abbrev": "µM·h", "AUC(0-inf)": 0.238}
